Numbers sourced from paper PMC8747035.

# System: HeLa WTβIII cells
# Assay remarks: SRB assay in βIII-tubulin expressing HeLa WTβIII cells
# Type: cell-based
# Condition description: Homo sapiens, read-out: IC50 ± SD in HeLa WTβ3
Test readout: pIC50
pIC50 here: minus log base 10 of the concentration, concentration in moles per litre.

Sample records with pIC50:
Smiles string: COc1ccc(N(C)c2ncnc3sc4c(c23)CCCC4)cc1
Test readout: pIC50
Obs value: 7.42

Smiles string: CSc1ccc(N(C)c2nc(C)nc3sc4c(c23)CCCC4)cc1
Test readout: pIC50
Obs value: 6.97

Smiles string: COc1ccc(N(C)c2nc(C)nc3sc4c(c23)CCCC4)cc1
Test readout: pIC50
Obs value: 7.09

Smiles string: COc1ccc2c(c1)CCCN2c1nc(N)nc2sc3c(c12)CCCC3
Test readout: pIC50
Obs value: 7.10

Smiles string: CSc1ccc(N(C)c2nc(N)nc3sc4c(c23)CCCC4)cc1
Test readout: pIC50
Obs value: 7.36

From here, focus on the item given below.
// pIC50 lookup, molecule = `COc1ccc2c(c1)CCCN2c1nc(C)nc2sc3c(c12)CCCC3` , result: 6.69
